B1: KLHDC10 (parent)
chain: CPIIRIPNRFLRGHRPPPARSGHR

Variants of: B1
Assay: protein stability index of a GFP-peptide fusion (GPS, HEK-293T) (PSI 1-6); higher = more stable;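 also: lentivirally expressed fusions sorted by FACS into six bins by GFP to DsRed ratio, PSI derived from sequencing read proportions per bin multiplied by bin number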
Conditions: c terminus: a fixed tail appended
Could you please classify the records by protein stability index using these ranges: lower range (below 2), middle range (2 to below 3), upper range (3 or more)

Reference set, count: 8
{"columns": ["MUTATION_DESCRIPTOR", "CATEGORY"],
 "data": [
  ["P17D", "lower range"],
  ["R9Q", "middle range"],
  ["R15Q", "middle range"],
  ["R5N", "upper range"],
  ["I6L", "upper range"],
  ["I4T", "upper range"],
  ["R12N", "middle range"],
  ["F10W", "middle range"]
]}

Next:
[Q] Category of I3C , please.
[A] lower range
